Reported growth inhibition values follow for various molecules
Assay: NCI Yeast Anticancer Drug Screen. Data for the rad50 strain (AID 155);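 further: 0% = growth of vehicle-only cultures of the same strain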
Settings: S. cerevisiae rad50 strain growth inhibition; at 50.0 µM; stronger effect = higher value
The panel holds about 79,000 compounds, 15% with a hit somewhere; the sample as a whole holds those more often.
Give just the numeric value; % need not be written.

Fill in the blank: the reported growth inhibition of CCN(CC)CCNc1ccccc1 is ____.
-0.45

###

Listed here are compounds together with their documented growth inhibition.
Assay: NCI Yeast Anticancer Drug Screen. Data for the rad50 strain (AID 155);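 further: 0% = growth of vehicle-only cultures of the same strain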
Settings: S. cerevisiae rad50 strain growth inhibition; at 50.0 µM; stronger effect = higher value
About 79,000 compounds went through this panel and 15% of them were active in at least one assay; those are over-represented in the sample as a whole.
Response body: numeric value in %, unit text excluded.

1) O=C(Nc1ccccc1)Oc1ccc(/C=N/Sc2cccc([N+](=O)[O-])c2)cc1; 67.1

Consider the compound shown here: O=c1oc2ccccc2c(O)c1C(c1ccc2c(c1)OCO2)N1CCCC1 (stereo unspecified) What is its recorded growth inhibition?
7.4

What measured growth inhibition goes with COc1ccc(-c2ccccc2)cc1NC(C)=O ?
9.8

Which value of growth inhibition has been reported for CCOC(=O)c1cnc2cc3c(cc2c1Nc1cccc(C(F)(F)F)c1)OCO3 in the records?
5.95

growth inhibition lookup needed for COc1ccc(/C=C/C(=O)c2ccc(Br)cc2)cc1 , thanks.
-33.4

Can you look up the measured growth inhibition of O=C(O)c1ccncc1 for me?
12.2

Looking for the measured growth inhibition of Cc1cccc(C)c1NCC1CO1 (stereo unspecified) , can you help?
-17.4

I would be grateful if you could share the reported growth inhibition for COc1ccc(Cc2ccc(Cl)cc2)c(OC)c1 .
3.3

###

Reported growth inhibition values for the following compounds.
Experiment: NCI Yeast Anticancer Drug Screen. Data for the mec2-1 strain (AID 157)
Settings: S. cerevisiae mec2-1 strain, at 50.0 µM, stronger effect = higher value
The panel holds about 79,000 compounds, 15% with a hit somewhere; the sample as a whole holds those more often.
Numbers only; they are read as %.

Some compounds with known growth inhibition results, for comparison:
1) CCN(CC)C1C(=O)NC1C#Cc1ccccc1 (stereo not given); 6.5
2) NC(CSSCC(N)=NC1CCCCC1)=NC1CCCCC1; 3.4
3) N#CC(c1cnc2ccccc2n1)c1cccc2ccccc12 (stereo not given); 5.9
4) c1ccc2c(c1)CCc1cc3cc4c(nc3nc1-2)-c1ccccc1CC4; -15.8
5) O=c1oc2ccc(Br)cc2cc1CCS; 21.2

Query: growth inhibition; subject: Cc1cc(N(CCC#N)CCC#N)ccc1/C=C(\NC(=O)/C=C/c1ccccc1)C(=O)N=[N+]=[N-]
-31.9

Entry under review: CC1CN=C(N(C(=O)Nc2ccc(Cl)cc2)c2cccc(Cl)c2)S1 (stereo not given) . Reported growth inhibition?
-13.7

Return reported growth inhibition; argument: O=C1CCCC1Sc1ccccn1 (stereo not given)
-11.5

###

Assay: NCI Yeast Anticancer Drug Screen. Data for the rad50 strain (AID 155);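 further: 0% = growth of vehicle-only cultures of the same strain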
Conditions: S. cerevisiae rad50 strain growth inhibition; at 50.0 µM
This is part of a sample that, as a whole, favours compounds with a hit. Of some 79,000 tested, about 15% had one in any assay. Calls of active or inactive are those of the source. Cut-off read from the data, not from the text of the source: active = growth inhibition above about 70%; inactive = the rest.
Allowed answers: Y (active), N (inactive)

The following molecules have reported results that may help.
1. O=S(=O)(O)c1cccc2c1oc1ccccc12; N
2. CNC(=O)c1ccccc1S(=O)Cc1ccc(Br)cc1 (centres undefined); N
3. Oc1ccc(Br)cc1C(c1ccc2c(c1)OCO2)N1CCOCC1 (centres undefined); N
4. C1=N/C=C\C=C/c2ccc[n+](CCCCC[n+]3ccccc3-c3ccccn3)c21; Y
5. Cc1cc(S(=O)(=O)Nc2nnc3cc(C(F)(F)F)cc(C)n23)c(S)cc1Cl; N
6. NC(CCCCNC(=O)OCc1ccccc1)C(=O)OCc1ccccc1 (centres undefined); N
7. O=c1[nH]c2cc(Cl)ccc2nc1/C(=N\Nc1ccccc1)C(O)c1ccc(Cl)c(Cl)c1 (centres undefined); N
8. CN=C(N)SCCCCCCSC(N)=NC; N

Assay outcome for CC(Oc1ccc2ccccc2c1I)C(=O)O (centres undefined) : what was it?
N

Could you check what this test reported for CSc1ccc(NC(=O)c2ccc(C(=O)Nc3ccc(SC)cc3)cc2)cc1 ?
N

Tell me the recorded outcome of this test for O=C1NC(=O)C(c2ccccc2)(C2CCOCC2)N1 (centres undefined) .
N

Record lookup: outcome of this test for CCC(=O)CCN(CC)CC ?
N

Recorded test outcome, item C/C(CC(C)(C)C)=N/NS(=O)(=O)c1ccc(C)cc1
N

Recorded test call requested for CCOC(=O)/C(Cc1cc(=O)n(C)c2ccccc12)=N\Nc1ccccc1
N

Outcome logged for Cc1ccc(N=CC=C2C=CN(O)C=C2)nc1 in this assay:
N

For Cc1[nH]c2c(C)ccc(C)c2c1CC(=O)O , what call appears in the results of this test?
N

###

Listing of recorded growth inhibition by entry.
Assay: NCI Yeast Anticancer Drug Screen. Data for the bub3 strain (AID 167)
Details: S. cerevisiae bub3 mutant strain, at 50.0 µM, stronger effect = higher value
This is part of a sample that, as a whole, favours compounds with a hit. Of some 79,000 tested, about 15% had one in any assay.
Expressed in %, but write only the number.

Sample answers from the record:
1) COc1ccc2[nH]c(C(F)(F)F)cc(=O)c2c1; 4.65
2) COc1ccc(-c2cc(=O)c3c(O)c(OC)c(O)c(OC)c3o2)cc1OC; 29.7
3) OC1CCCC2OC2CC1 (configuration not stated); 7.25

Entry CCCCCCCC(=O)NS(=O)(=O)c1ccccc1 has what growth inhibition?
37.2

Fill in the blank: the reported growth inhibition of C=C1C(c2ccccc2)C(c2ccccc2)=C(C)C(c2ccccc2)=CN1C(=O)c1ccccc1 (configuration not stated) is ____.
-4.7

Return reported growth inhibition; argument: NC(=O)N/N=C/c1cccc(O)c1O
-2.9

Query: growth inhibition; subject: CN(C)CCNc1cccc2oc3ccc(O)cc3c(=O)c12
-4.95

###

Assay: NCI Yeast Anticancer Drug Screen. Data for the mlh1 rad18 strain (AID 175)
Details: S. cerevisiae mlh1 rad18 strain growth inhibition; at 50.0 µM; stronger effect = higher value
About 79,000 compounds went through this panel and 15% of them were active in at least one assay; those are over-represented in the sample as a whole.
measurement.kind: growth inhibition (%)
Form entry: value (%) — number only.

Return reported growth inhibition; argument: CSc1c2c(c(C)c3c1[nH]c1ccccc13)C=NCC2
17.7

Which measured growth inhibition value corresponds to CC(C)(C)NC(=O)Oc1ccc2ccccc2c1 ?
-15.7

Bench note: what growth inhibition did CCOC(=O)C(C)(NC(=O)c1ccc(NCc2ccc3nc(NC(=O)c4ccccc4)nc(NC(=O)c4ccccc4)c3c2)cc1)C(=O)OCC show?
-8.45

###

Test: NCI Yeast Anticancer Drug Screen. Data for the rad50 strain (AID 155);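 further: 0% = growth of vehicle-only cultures of the same strain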
Conditions: S. cerevisiae rad50 strain growth inhibition; at 50.0 µM; stronger effect = higher value
The panel holds about 79,000 compounds, 15% with a hit somewhere; the sample as a whole holds those more often.
As shown below, each of these compounds has a reported growth inhibition value.
Give the value, in units of %, as a plain number.

Past entries and their recorded results:
1. CCSc1n[nH]c(=O)nc1NN; -0.35
2. N#Cc1c(C#N)c(-c2ccco2)n(/N=C/c2ccco2)c1N; 4.55
3. O=c1[nH]nc(S(=O)(=O)c2ccccc2)c(=O)[nH]1; 13.2
4. CC(=O)Nc1nc(NC(C)=O)c2nc(C)cnc2n1; 4.45
5. S=C(S)OC1CCCCC1.[Zn+2]; -14.9

# get_value(readout='growth inhibition', item= CCCCCCCCCCCCSC(=O)Nc1ccc(C(=O)OCC)cc1 )
24.9

# query: growth inhibition of entry CN(C)c1ccc(C2(c3ccc(N(C)C)cc3)c3ccccc3C(=O)N2N)cc1
54.1

Fill in the blank: the reported growth inhibition of Cc1nn(C)c(=O)c2nn(-c3ccccc3)c(C)c12 is ____.
19.6

For the compound shown here, Brc1ccc(-c2[nH]c3ccccc3c2N=Nc2ccccc2)cc1 , give the reported growth inhibition.
0.85

Which growth inhibition reading was recorded for the compound COC1CC(NC(C)=O)C(OC(C)=O)C(CN=[N+]=[N-])O1 (stereo not given) ?
5.1

// lookup growth inhibition for CC(=O)OC1C(C(O)CO)OC2OC(C)(C)OC21 (stereo not given)
-10.9

Name the recorded growth inhibition for O=C(Oc1ccc([N+](=O)[O-])cc1)C(CSC(c1ccccc1)(c1ccccc1)c1ccccc1)N1C(=O)c2ccccc2C1=O (stereo not given) .
61.8

State the recorded growth inhibition for this entry: O=C1CNC(=O)N1
-38.1

State the recorded growth inhibition for this entry: Cc1cc(SCC(=O)c2ccccc2)nc2ccccc12
-6.75

Please report the recorded growth inhibition for O=C(CN1CCCc2ccccc21)c1ccccc1 .
6.75

###

Assay: NCI Yeast Anticancer Drug Screen. Data for the bub3 strain (AID 167)
Conditions: S. cerevisiae bub3 mutant strain, at 50.0 µM, stronger effect = higher value
About 79,000 compounds went through this panel and 15% of them were active in at least one assay; those are over-represented in the sample as a whole. Calls of active or inactive are those of the source. Rule as the data show it: active = growth inhibition above about 70%; inactive = the rest.
measurement.kind: growth inhibition

1) O=C(c1ccccc1)c1nc2c(Cl)ccc(Cl)c2cc1C(Br)Br; 38.1% (inactive)
2) CC(C)(C)/C(CC(=O)CCC(=O)Nc1ccc(Cl)cc1)=N\NC(N)=S; 1.65% (inactive)
3) CC1=CN2C(c3ccc(Cl)cc3)=NON(c3ccc(C)cn3)C2C=C1 (centres undefined); 5.25% (inactive)
4) CCOc1ccccc1C=Nc1cc(C(C)C)c(O)cc1C; 0.85% (inactive)

# query: growth inhibition of entry C[N+](C)([O-])CCNC(=O)c1cccc2cc3ccccc3nc12
10.2% (inactive)

Would you mind telling me what growth inhibition value was observed for Cc1cccc(NC(=O)Nc2ccccc2Cl)c1C ?
-2.3% (inactive)

Give the measured growth inhibition of CC(=O)CCCS(=O)(=O)c1ccccc1 .
-3.8% (inactive)

What measured growth inhibition goes with CC(C)(C)OC(=O)N(CCCCNC(=O)c1ccccc1)CCCNC(=O)c1ccccc1 ?
-36.5% (inactive)

Report growth inhibition for CC(C)CCCC(C)C1CCC2C3CC=C4CC(C(=O)O)CCC4C3CCC12C (centres undefined) please.
-3.5% (inactive)
